- system: T1, human insulin receptor isoform A with C-terminal C9 tag (human, UniProt P06213 28-1382)
- T1 construct: membranes of stably transfected HEK293 cells; also called hIR-A; human IR-A
- experimental-details: 125I-insulin competition SPA, hIR-A membranes, 0.001% NP-40
- Experimental: The assays are performed with a SPA method using polyvinyltoluene (PVT) wheat germ agglutinin-coupled SPA beads (Perkin Elmer). Assay buffer contains 50 mM Tris-HCl, pH 7.5, 150 mM NaCl and either A) 0.1% w/v fatty-acid free BSA; B) 0.1% w/v fatty-acid free human serum albumin (HSA); C) 0.1% w/v rat serum albumin (RSA); or D) 0.001% Nonidet P-40 Substitute (NP-40, Roche Diagnostics). […]
The binders listed here are annotated with their pKi.
// returns pKi (minus log10 of molar concentration), number only

Entry INS Analog 21 (other, single-chain insulin B-L2-A-L1-VHH fusion; also called Ex. 21) FVSQHLCGSHLVEALHLVCGERGFHYTPKTGGGGGGGIVEQCCHSICSLYQLENYCGGGGGQGGGGQGGGGQGGGGQGGGGQEVQLLESGGGLVQPGGSLRLSCAASGRYIDETAVAWFRQAPGKEREFVAGIGGGVDITYYADSVKGRFTISRDNSKNTLYLQMNSLRPEDTAVYYCAARPGRPLITSKVADLYPYWGQGTLVTVSSPP has what pKi?
8.08

Entry INS Analog 18 (other, single-chain insulin B-L2-A-L1-VHH fusion; L1 is (PGPA)8; also called Ex. 18) FVSQHLCGSHLVEALRLVCGERGFHYTPKTGGGGGGGIVEQCCHSICSLYQLENYCGPGPAPGPAPGPAPGPAPGPAPGPAPGPAPGPAEVQLLESGGGLVQPGGSLRLSCAASGRYIDETAVAWFRQAPGKEREFVAGIGGGVDITYYADSVKGRFTISRDNSKNTLYLQMNSLRPEDTAVYYCAARPGRPLITSKVADLYPYWGQGTLVTVSSPP has what pKi?
7.05

Entry INS Analog 10 (other, single-chain insulin B-L2-A-L1-VHH fusion; also called Ex. 10) FVSQHLCGSHLVEALHLVCGERGFFYTPKTGGGGGGGIVEQCCTSICSLYQLENYCGPGPAPGPAPGPAPGPAPGPAPGPAPGPAPGPAEVQLLESGGGLVQPGGSLRLSCAASGRYIDETAVAWFRQAPGKEREFVAGIGGGVDITYYADSVKGRFTISRDNSKNTLYLQMNSLRPEDTAVYYCAARPGRPLITSKVADLYPYWGQGTLVTVSSPP has what pKi?
7.70

Entry INS Analog 28 (other, single-chain insulin B-L2-A-L1-VHH fusion; also called Ex. 28) FVSQHLCGSHLVEALRLVCGERGFFYTPKTGGGGGGGIVEQCCHSICSLYQLENYCGPGPQPGPQPGPQPGPQPGPQPGPQPGPQPGPQEVQLLESGGGLVQPGGSLRLSCAASGRYIDETAVAWFRQAPGKEREFVAGIGGGVDITYYADSVKGRFTISRDNSKNTLYLQMNSLRPEDTAVYYCAARPGRPLITSKVADLYPYWGQGTLVTVSSPP has what pKi?
7.49

Entry INS Analog 16 (other, single-chain insulin B-L2-A-L1-VHH fusion; also called Ex. 16) FVSQHLCGSHLVEALWLVCGERGFFYTPKTGGGGGGGIVEQCCTSICSLYQLENYCGPGPAPGPAPGPAPGPAPGPAPGPAPGPAPGPAEVQLLESGGGLVQPGGSLRLSCAASGRYIDETAVAWFRQAPGKEREFVAGIGGGVDITYYADSVKGRFTISRDNSKNTLYLQMNSLRPEDTAVYYCAARPGRPLITSKVADLYPYWGQGTLVTVSSPP has what pKi?
7.37

Entry INS Analog 23 (other, single-chain insulin B-L2-A-L1-VHH fusion; also called Ex. 23) FVSQHLCGSHLVEALHLVCGERGFHYTPKTGGGGGGGIVEQCCHSICSLEQLENYCGGGGGQGGGGQGGGGQGGGGQGGGGQEVQLLESGGGLVQPGGSLRLSCAASGRYIDETAVAWFRQAPGKEREFVAGIGGGVDITYYADSVKGRFTISRDNSKNTLYLQMNSLRPEDTAVYYCAARPGRPLITSKVADLYPYWGQGTLVTVSSPP has what pKi?
7.72
